Provide the reported pKd of each item.
- System tested: T1, hNPR1-mFc:hANP or hNPR1-hFc:hANP complex (human, UniProt P01160 124-151)
- T1 construct: also called human NPR1 complexed to ANP
- Assay procedure: SPR, mAb captured, 25C
Give bare numbers, as −log10 of the molar value.

[[record]]
binder = "mAb25497 (antibody, human IgG4, V domains shown) VH: QVQLVQSGAEVKEPGASVKVSCKASGYTFTDYYIHWVRQAPGQGLEWMGWINLNSGGKNHAQKFQGRVTVTSDTSINTAYIELGRLRGDDTAVYYCSRGGGSHYYYYYHGMDVWGQGTTVTVSS VL: DIQMTQSPSSLSASVGDRITITCRASHSIDSYLNWYQQKPGKAPKLLIYPASTLQSGVPSRFSGSGSGTDFTLTISSLQPEDSAIYYCQQSYSTPLTFGGGTKVEIK"
result_number = 9.55

[[record]]
binder = "mAb22810 (antibody, human IgG4, V domains shown) VH: EVQLVESGGGLVKPGGSLRLSCVVSGFTFRIYTMNWVRQAPGKGLEWVASISSSSSFINYADSLKGRFTISRDNAQNSLYLQMNSLRAEDTAIYYCARAAGNDVLPGRMDVWGQGTSVTVSS VL: EIVLTQSPGTLSLSPGERATLSCRASQSVSSNYLAWYQQKPGQVPSLLIYGASSRATGIPDRFSGSGSGTDFTLTITRLEPEDFAVYYCQQYGISPWTFGQGTKVEIK"
result_number = 7.38


Turning now to a further binder:
Form field: reported pKd of mAb25502 (antibody, human IgG4, V domains shown) VH: QLQLQESGPGLVKPSETLSLTCTVSGGSISSSSYYWGWIRQPPGKGLEWIGSIYYSGSPYYIPSLKSRVTISVDTSKNQFSLKLSSVTAADTAMYYCARQGRGIARAGPFDYWGQGTLVTVSS VL: DIQMTQSPSSLSASVGDRVTITCRASQGISNYLAWYQEKPGKVPKLLIYAASTLQSGVPSRFSGSGSGTDFTLTITSLQSEDVATYYCQKYNSAPPWTFGQGTKVEIK 8.38
